Where these numbers come from: PubChem BioAssay (NCI)

System: K-562 leukemia
ASSAY SUMMARY: NCI tumour cell line growth inhibition, 48 h
Where a SMILES comes first, the peptide text is derived from it. [ ]: non-standard residue; d: D form. ξ: configuration not given here. ξLac(3-iPr) = CC(C)CC(O)C(=O)O; NMeV = CN[CH](C(=O)O)C(C)C; NMeA = CN[CH](C)C(=O)O; βAla = NCCC(=O)O
VALUE KIND: TGI

Ask | Reported TGI, compound CCC(C)C1NC(=O)C2CCCN2C(=O)C(CC(C)C)OC(=O)CCNC(=O)C(C)N(C)C(=O)C(C(C)C)N(C)C1=O (configuration not stated) (cyclo([ξLac(3-iPr)]PI[NMeV][NMeA][βAla]); configuration not given here) : ____
Reply | > 100 µM

Ask | Can you check `CC(=O)OC[C@@]12Cc3ccc(C)c(O)c3[C@]1(C)[C@@H](OC(C)=O)[C@]1(O)[C@H]([C@@H](OC(=O)c3ccccc3)[C@@H](C)[C@H]1OC(C)=O)[C@H]2OC(C)=O` next?
Reply | > 50 µM

Ask | Please do the same for `CN1CCN(c2ccc(NC(=O)c3cncnc3Nc3ccc(OCc4ccccn4)c(Cl)c3)cc2)CC1` as well.
Reply | 2.28 µM

Ask | Also need COc1cc2c(cc1OC)C(=O)C1(C2)[C@H](c2ccccc2)C2C(=O)c3cc(OC)c(OC)cc3C2[C@H]1c1ccccc1 (some centres not stated) , thanks.
Reply | > 100 µM

Ask | Can you handle `CC(C)(C)OC(=O)NCCNCCNc1ccccc1` next?
Reply | > 100 µM

Ask | // next record `CC1=NN(c2nc(N)nc(C/C(N)=N/O)n2)C(C)(C)C1`
Reply | > 100 µM

Ask | Next up: CSC(=S)OC1CC(n2cnc3c(NC(=O)c4ccccc4)ncnc32)OC1CO[Si](C)(C)C(C)(C)C (configuration not stated)
Reply | > 49.5 µM

###

Tested on: DU-145 prostate
ASSAY SUMMARY: NCI tumour cell line growth inhibition, 48 h
Could you please report measured TGI for the items listed next?
# value in µM; strip the unit string

Ask | Item: `CC1(C)NCCC[C@]2(C)[C@H]3CC[C@@H]4[C@H]5[C@H](C(=O)/C=C/c6ccccn6)CC[C@]5(CO)CC[C@@]4(C)[C@]3(C)CC[C@@H]12` Test system: DU-145 prostate Read-out: TGI Value: ?
Reply | 12.4

Ask | Next up: `Oc1c(Cl)cc(Cl)cc1C(c1cc(Cl)cc(Cl)c1O)C(Cl)(Cl)Cl`
Reply | 15.7

Ask | And for `C[C@]12CC[C@@H]3c4ccc(O)cc4CC[C@H]3[C@@H]1CC[C@@H]2OC(=O)CCc1ccccc1` ?
Reply | 43

Ask | Next entry: `O=C(N/N=C/c1ccc(O)cc1O)c1cccc(Nc2ccnc(C(F)(F)F)c2)c1`
Reply | 20.9

Ask | Can you check COC(=O)C(COC(=O)/C=C/c1ccc(OC(C)=O)c(OC(C)=O)c1)NC(=O)/C=C/c1ccc(OC(C)=O)c(OC(C)=O)c1 (centres undefined) next?
Reply | 45.2

Ask | Subsequent entry: `CCOC(=O)C#Cc1c(C(=O)OCC)nnn1Cc1ccc([N+](=O)[O-])cc1`
Reply | 14.2

Ask | Try `CCCN(CCC)c1ccc(/C=N/NC(=O)c2cccnc2)c(OC)c1` next.
Reply | 94.8

Ask | Follow-up item: CC(=O)O[C@H]1[C@@H]2OC(=O)C(CSc3ccccc3)[C@@H]2C[C@H]2O[C@]2(C)CC/C=C(\C)CCC[C@@H]1C (some centres undefined)
Reply | 5.6

Ask | Try this compound too: `CCOC(=O)c1cc(Br)c(-c2cc(C)no2)[nH]1`
Reply | 73.8
